- Assay name: Stability of analytes in rat plasma QC samples under storage conditions
- Assay type: in vitro ADME
- Recorded conditions: rat plasma, n=6; high QC: spiked 2000 ng/mL glycyrrhizic acid; 1000 liquiritin; 200 emodin, gallic acid, ononin, schisandrin, stilbene glycoside; 100 isoliquiritigenin, liquiritigenin, rhein, verbascoside
Property measured: Measured Concentration, -70°C for 14 days (ng/mL)

(P) OC[C@H]1O[C@@H](Oc2c(O)cc(O)cc2/C=C/c2ccc(O)cc2)[C@H](O)[C@@H](O)[C@@H]1O [stilbene glycoside]
(Q) O=C(/C=C/c1ccc(O)cc1)c1ccc(O)cc1O
Sort P and Q by Measured Concentration, -70°C for 14 days descending and give the first. Which one? Tell me its label.
P
(P: 203.34 ng/mL, Q: 100.74 ng/mL)
